assay: Human HepG2 cell viability assay in 384 well format; type: toxicity, cell-based; set-up: dose 125 nL, time 70.5 hour; concentration not given beside the values; settings: HepG2 cells, read-out: Inhibition
parameterMeasured: cytotoxicity at 70.5 h (%)
Respond with the bare value in %.

compound	cytotoxicity at 70.5 h, %
CCOc1ncccc1C(=O)N1CCCC(n2nc(C)nc2C)C1 (stereo not drawn)	-11.7

Specify measured cytotoxicity at 70.5 h for COc1ccc(-c2nc(CCNc3nnc(C)c(C)c3C#N)co2)cc1 .
13.7

Specify measured cytotoxicity at 70.5 h for Cn1cnc2c1C(COCC1CC1)CN(C(=O)Cc1ccsc1)C2 (stereo not drawn) .
-3.95

Tell me cytotoxicity at 70.5 h reported for O=C([C@@H]1COC[C@H]2CN(C3CCOCC3)C[C@H]21)N1CCCO1
14.5

Supply reported cytotoxicity at 70.5 h belonging to this compound: CCOC(C)C(=O)N(C)C1CCN(c2ccc(OC)cc2)CC1 (stereo not drawn)
-4.16

Provide one value: measured cytotoxicity at 70.5 h of CS(=O)(=O)Cc1cccc(C(=O)N2CCCC(n3cccn3)C2)c1 (stereo not drawn)
17.8

---

assay: Human HepG2 cell viability assay in 384 well format; assay type: toxicity, cell-based; parameters: dose 125 nL, time 70.5 hour; concentration not given beside the values; settings: HepG2 cells, read-out: Inhibition
Measured cytotoxicity at 70.5 h of individual entries
# output: bare number, implied unit %

Examples with answers:
compound	parameterMeasured	measuredNumber
O=C(Cc1csc(-c2cccc(Cl)c2)n1)NCc1cccc(C(=O)O)c1	cytotoxicity at 70.5 h	-14.3
Cc1cc(C)n(CC(C)CNC(=O)NCc2csc(C)n2)n1 (stereo unspecified)	cytotoxicity at 70.5 h	42.1
c1ccc2[nH]c(C3CCN(Cc4nnc(C5CC5)o4)CC3)cc2c1	cytotoxicity at 70.5 h	-12.6
Cc1cccc2cc(C(=O)N3CCC(F)(F)CC3)n(C)c12	cytotoxicity at 70.5 h	32.7
COCCN1CCn2cc(CN(C)Cc3ccco3)nc2C1	cytotoxicity at 70.5 h	-7.59

Tell us which cytotoxicity at 70.5 h value is on record for CC(C)[C@@H]1CN(CCOc2ccccc2)C[C@H]1NS(=O)(=O)N(C)C
-5.28

Give reported cytotoxicity at 70.5 h value for O=C(NCc1ccccc1)C1=NOC2(CCNC2)C1 (stereo unspecified)
-11

---

assay: Human HepG2 cell viability assay in 384 well format; assay type: toxicity, cell-based; design: dose 125 nL, time 70.5 hour; concentration not given beside the values; settings: HepG2 cells, read-out: Inhibition
parameterMeasured: cytotoxicity at 70.5 h (%)
Report the figure in % without appending any unit label.

compound	cytotoxicity at 70.5 h (%)
Cc1cc(CN2CCOC(CN(C)C)C2)no1 (configuration not stated)	9.18
O=C(c1ncccn1)N1C[C@@H]2CC[C@H](Oc3cccc(F)c3)[C@@H]2C1	-6.95
c1ncc2c(n1)CN(Cc1nc(-c3ccsc3)no1)CC2	-14.7
CC(C)c1nc(C2CCCN2C(=O)c2cnns2)no1 (configuration not stated)	-1.79
Cc1nc(CN(C)Cc2nc(-c3ccncc3)no2)co1	3.9
Cc1cc(C(=O)N2CCn3cc(CN4CCOCC4)nc3C2)no1	-7.09
c1coc(-c2noc(CN3CCCC(Cn4cncn4)C3)n2)c1 (configuration not stated)	26
O=C(O)CCc1ccc(S(=O)(=O)Nc2cnn(CC3CC3)c2)cc1	27.6

Provide measured cytotoxicity at 70.5 h value, entry: CCc1ncc2c(n1)CN(Cc1nnc(CC)o1)CC2
-79.4

Answer with the recorded cytotoxicity at 70.5 h of c1ccc(CCN2CCN(C3CCOC4(CCOCC4)C3)CC2)nc1 (configuration not stated) only.
-9.08

State, in one line, measured cytotoxicity at 70.5 h of CC(C)CN(Cc1ccc(O)c(C(=O)O)c1)Cc1cnn(C)c1
-1.34

Identify the reported cytotoxicity at 70.5 h for the following entry. CNS(=O)(=O)c1ccc(CNC(=O)c2cccc(C)n2)cc1
16.9

---

experiment: Human HepG2 cell viability assay in 384 well format; assay type: toxicity, cell-based; set-up: dose 125 nL, time 70.5 hour; concentration not given beside the values; conditions: HepG2 cells, read-out: Inhibition
Entries and their measured cytotoxicity at 70.5 h follow.

// solved cases for cytotoxicity at 70.5 h follow
compound	cytotoxicity at 70.5 h
Cc1noc(CNc2ccc(C(=O)N3CCCC(C)C3)cc2C)n1 (centres undefined)	-6.32%
Cc1noc(C2CCCN(Cn3cc(Cl)cn3)C2)n1 (centres undefined)	-1.46%
Cc1ccc(CN(C(=O)NCC(c2cccs2)N(C)C)C2CC2)o1 (centres undefined)	-5.44%
COc1cccc(S(=O)(=O)NC(=O)C2CC(c3ccccc3)=NO2)c1 (centres undefined)	-9.7%
CC(=O)N1CCN(C(=O)c2ccc(-c3cccc(C)c3)[nH]c2=O)CC1	-2.2%
O=C(N1CCCCC1)N1CCN(CC(O)c2ccc(F)cc2)CC1 (centres undefined)	-7.9%
Cc1nc(CN2CCc3ncnc(-c4ccccc4)c3CC2)cs1	-9.56%
COc1ccc(C(=O)N2CCCC(n3cc(C)cn3)C2)c(F)c1 (centres undefined)	-3.25%
CC(C)c1nccn1C1CCCN(C(=O)CCNS(C)(=O)=O)C1 (centres undefined)	-6.32%
CCN1CC(Oc2ccc(Cl)cc2)=NC(SCC(=O)c2ccccc2)=N1	12.1%

Please look at this compound and report its cytotoxicity at 70.5 h: OC1(CNCCc2nc3c(s2)CCCC3)CCNC1 (centres undefined)
-2.83%

Tell us which cytotoxicity at 70.5 h value is on record for CCN1CCO[C@@H]2CN(C(=O)COC3CCCC3)C[C@@H]2C1
7.26%

Recall and state the measured cytotoxicity at 70.5 h for c1ccc(OCCNCc2cccs2)nc1 .
7.79%

Please report cytotoxicity at 70.5 h for the following compound: Cc1ccc(S(=O)(=O)NC(=O)c2cc(S(C)(=O)=O)ccc2C)s1
-0.802%

Tell me measured cytotoxicity at 70.5 h for Cc1cnc(CN(Cc2ccccc2)CC2CCOCC2)cn1 please.
-3.35%

Query cytotoxicity at 70.5 h for CCn1ncc2c1C(COC)CN(Cc1ccsc1)C2 (centres undefined)
1.82%

Give reported cytotoxicity at 70.5 h value for c1ccc(CCN2CCOC(Cn3cccn3)C2)nc1 (centres undefined)
-4.02%

Recall and state the measured cytotoxicity at 70.5 h for Cc1nc(N)nc(C)c1CC(=O)NCc1ccc2nonc2c1 .
-9.8%

Respond only with cytotoxicity at 70.5 h recorded for CCCn1cc(CN2CCCC2c2nccc(CN(C)C)n2)cn1 (centres undefined)
21.3%

---

# reported cytotoxicity at 70.5 h; entries follow
test: Human HepG2 cell viability assay in 384 well format; format: toxicity, cell-based; design: dose 125 nL, time 70.5 hour; concentration not given beside the values; conditions: HepG2 cells, read-out: Inhibition
Provide the reading as a plain figure in %.

compound	parameterMeasured	measurementUnit	measuredNumber
Cc1nn(C)c(C)c1CN1CCCC(c2ccc(C(=O)O)cc2)C1 (stereo unspecified)	cytotoxicity at 70.5 h	%	-3.35
CCn1cc(CN2CCCC2c2nc(-c3ccccc3)no2)cc1C#N (stereo unspecified)	cytotoxicity at 70.5 h	%	2.37

Name the recorded cytotoxicity at 70.5 h of the compound listed here: CN(C(=O)Nc1nncs1)C1CCN(c2ccccc2Cl)C1=O (stereo unspecified)
-21.1

Supply reported cytotoxicity at 70.5 h belonging to this compound: COCCN(C)c1cnn(C)c(=O)c1Br
-14.7

Answer with reported cytotoxicity at 70.5 h of Cc1ccc(-c2nc(CN3CCn4c(nnc4C4CC4)C3)no2)cc1
10.2

Determine from records and report cytotoxicity at 70.5 h for Cc1nc(C)n(CC2CN(CCn3cccn3)CCO2)n1 (stereo unspecified)
31.9

---

test: Human HepG2 cell viability assay in 384 well format; type: toxicity, cell-based; design: dose 125 nL, time 70.5 hour; concentration not given beside the values; details: HepG2 cells, read-out: Inhibition
parameterMeasured: cytotoxicity at 70.5 h
Number first, unit second: that is the form wanted.

// worked examples, cytotoxicity at 70.5 h included
molecule	cytotoxicity at 70.5 h
CN(C)S(=O)(=O)N1CCO[C@H]2[C@H](Oc3cccnc3)CC[C@@H]21	-3.81%
COc1ccc(NC(=O)C(c2ccc(OC)cc2)N2CCOCC2)cc1 (centres undefined)	0.848%
CCn1nccc1CNC(=O)C1CCC1	-2.95%
CN(C)S(=O)(=O)N1CCC2(CC1)CC(OCC1CC1)CO2 (centres undefined)	-4.38%
Cc1ccsc1-c1nccn1CCN1CCCCC1CO (centres undefined)	-4.24%

Supply measured cytotoxicity at 70.5 h of Cc1cccc(CN2C[C@@H]3OCCN(c4ccnc(N(C)C)n4)[C@@H]3C2)c1 in your reply.
10%

Kindly indicate its recorded cytotoxicity at 70.5 h. Item: CCOCCN1CCN(Cc2coc(-c3cccc(F)c3)n2)CC1
-1.54%

Return reported cytotoxicity at 70.5 h. Input molecule: COC(=O)N1CCCC(NC(=O)NCc2ccc(C)nc2)C1 (centres undefined)
-4.96%

Annotate the molecule Cc1noc(NCc2cc(F)ccc2F)n1 with its measured cytotoxicity at 70.5 h.
-3.22%
